# credit: ChEMBL document CHEMBL1132241

- assay summary: In vitro concentration at which 50% of human colon carcinoma cells (S1-B1-20) resistant to bisantrene have survived
- Type: ADME, cell-based, S1B1-20
- measurement context: S1-B1-20 human colon carcinoma cells resistant to bisantrene, read-out: LD50 (the source's name)
Examples of compounds with documented CC50 follow.
value type: CC50

compound="COc1cc2c(cc1OC)CN(CCCCCC(Sc1ccc(C)cc1)c1ccc3c(c1)OCO3)CC2 (stereo unspecified)" measured_result="15.9 µM"
compound="COc1ccc(C(C#N)(Cc2cccc(CN3CCc4cc(OC)c(OC)cc4C3)c2)Sc2ccc(C)cc2)cc1OC (stereo unspecified)" measured_result="23.3 µM"
compound="COc1ccc(C(C#N)(CCCCCN2CCc3cc(OC)c(OC)cc3C2)SC2CCCCC2)cc1OC (stereo unspecified)" measured_result="14 µM"
compound="COc1ccc(C(C#N)(CCN2CCc3cc(OC)c(OC)cc3C2)Sc2ccc(C)cc2)cc1OC (stereo unspecified)" measured_result="33.7 µM"
compound="COc1cc2c(cc1OC)CN(CCCCCCC(Sc1ccc(C)cc1)c1ccc(F)cc1)CC2 (stereo unspecified)" measured_result="27 µM"
compound="COc1ccc(C(CCCCCCN2CCc3cc(OC)c(OC)cc3C2)Sc2ccc(C)cc2)cc1OC (stereo unspecified)" measured_result="13.2 µM"
compound="COc1cc2c(cc1O)CN(CCCCCC(C#N)(Sc1ccc(C)cc1)c1ccc(OC)c(OC)c1)CC2 (stereo unspecified)" measured_result="24.9 µM"
compound="CCC(CCCCCN1CCc2cc(OC)c(OC)cc2C1)(Sc1ccc(C)cc1)c1ccc(OC)c(OC)c1 (stereo unspecified)" measured_result="11.8 µM"
compound="COc1ccc2c(c1)CCN(CCCCCC(C#N)(Sc1ccc(C)cc1)c1ccc(OC)c(OC)c1)C2 (stereo unspecified)" measured_result="15.7 µM"
compound="COc1ccc(C(C#N)(CCCCCN2CCc3cc(OC)c(OCCN(C)C)cc3C2)Sc2ccc(C)cc2)cc1OC (stereo unspecified)" measured_result="6.68 µM"
compound="COC(=O)C(CCCN1CCc2cc(OC)c(OC)cc2C1)(Sc1ccc(C)cc1)c1ccc(OC)c(OC)c1 (stereo unspecified)" measured_result="32.8 µM"
compound="COc1ccc(C(C#N)(CCCCCCCCCCCN2CCc3cc(OC)c(OC)cc3C2)Sc2ccc(C)cc2)cc1OC (stereo unspecified)" measured_result="10.8 µM"
compound="COc1ccc(C(CCCCCCN2CCc3cc(OC)c(OC)cc3C2)Sc2ccc(C)cc2)cc1O (stereo unspecified)" measured_result="13.1 µM"
compound="COc1ccc(C(C#N)(CCCCCN2CCc3cc(OC)c(OC)cc3C2)Sc2ccccn2)cc1OC (stereo unspecified)" measured_result="50.8 µM"
compound="COc1ccc(C(C#N)(CCCCCCN2CCc3cc(OC)c(OC)cc3C2)Sc2ccc(C)cc2)cc1OC (stereo unspecified)" measured_result="13.5 µM"
compound="COc1cc2c(cc1OC)CN(CCCCCCC(Sc1ccc(C)cc1)c1ccc(OC)c(O[Si](C)(C)C(C)(C)C)c1)CC2 (stereo unspecified)" measured_result="49.1 µM"
compound="COc1cc2c(cc1OC)CN(CCCCCCC(Sc1ccc(C)cc1)c1ccc(OC)c(OCCn3ccnc3)c1)CC2 (stereo in doubt; 37b)" measured_result="5.52 µM"
compound="COc1ccc(C(CCCCCCN2Cc3cc(OC)c(OC)cc3C2)Sc2ccc(C)cc2)cc1OC (stereo unspecified)" measured_result="22.1 µM"
compound="COc1ccc(C(C#N)(CCCCCN2Cc3cc(OC)c(OCCn4ccnc4)cc3C2)Sc2ccc(C)cc2)cc1OC (stereo unspecified)" measured_result="8.37 µM"
compound="COc1ccc(C(CCCCCN2CCc3cc(OC)c(OC)cc3C2)SC(C)(C)C)cc1OC (stereo unspecified)" measured_result="76.8 µM"
compound="COc1ccc(C(C#N)(CCCCCN2Cc3cc(OC)c(OC)cc3C2)SC2CCCCC2)cc1OC (stereo in doubt; 46)" measured_result="11.8 µM"
compound="COc1ccc(C(C#N)(CCCCCN2CCc3cc(OC)c(OC)cc3C2)Sc2ccc(C)cc2)cc1OC (stereo unspecified)" measured_result="13.6 µM"
compound="CCCCCSC(CCCCCN1CCc2cc(OC)c(OC)cc2C1)c1ccc(OC)c(OC)c1 (stereo unspecified)" measured_result="16.3 µM"
compound="COc1ccc(C(C#N)(CCCCN2CCc3cc(OC)c(OC)cc3C2)Sc2ccc(C)cc2)cc1OC (stereo unspecified)" measured_result="41.8 µM"
compound="COc1ccc(C(C#N)(CCCCCN2CCc3cc(OC)c(OCCn4ccnc4)cc3C2)SC2CCCCC2)cc1OC (stereo unspecified)" measured_result="8.39 µM"
compound="COc1ccc(C(CCCCCN2CCc3cc(OC)c(OC)cc3C2)SCc2ccccc2)cc1OC (stereo unspecified)" measured_result="15.1 µM"
